Biological target: human activated kallikrein enzyme (Homo sapiens, UniProt P03952)
Sequence (P03952 391-638 limits assumed): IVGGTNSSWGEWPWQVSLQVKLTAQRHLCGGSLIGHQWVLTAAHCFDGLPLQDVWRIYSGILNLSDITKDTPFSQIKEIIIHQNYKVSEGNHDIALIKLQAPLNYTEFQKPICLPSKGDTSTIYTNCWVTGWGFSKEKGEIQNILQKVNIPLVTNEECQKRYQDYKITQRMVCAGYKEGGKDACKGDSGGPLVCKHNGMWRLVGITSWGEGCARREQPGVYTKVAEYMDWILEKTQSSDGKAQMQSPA
Sequence (P03952 20-390 partner limits assumed): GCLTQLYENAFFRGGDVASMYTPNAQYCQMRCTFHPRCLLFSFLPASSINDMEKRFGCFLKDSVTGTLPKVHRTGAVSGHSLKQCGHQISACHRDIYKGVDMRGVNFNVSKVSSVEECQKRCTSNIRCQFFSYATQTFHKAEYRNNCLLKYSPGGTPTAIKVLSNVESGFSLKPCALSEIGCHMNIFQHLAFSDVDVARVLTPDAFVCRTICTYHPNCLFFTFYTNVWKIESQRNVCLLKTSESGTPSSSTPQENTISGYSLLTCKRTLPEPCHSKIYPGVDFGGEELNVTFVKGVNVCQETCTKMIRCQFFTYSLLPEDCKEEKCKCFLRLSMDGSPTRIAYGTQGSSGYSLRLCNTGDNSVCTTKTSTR
Assay: Inhibition of human activated plasma kallikrein, fluorogenic PFR-AMC substrate, 500 pM enzyme format
Format: biochemical
Details: 500 pM activated kallikrein; 300 μM PFR-AMC; 30 min preincubation; 10 min room temperature; pH 7.5; read-out: Primary Dose Response Assay: Average EC50
Structures can show the parent of a compound that is named as a salt.

molecule | assayed-system | EC50
Cc1cc2c(N)nccc2c(C)c1CNC(=O)c1cnn(Cc2ccc(Oc3cccn(C)c3=O)cc2)c1 | human activated kallikrein enzyme (Homo sapiens, UniProt P03952) | < 1 nM
Cc1cc2c(N)nccc2c(C)c1CNc1cc(OC(C)c2ccc3ncc(Cl)cc3c2)cnn1 (stereo not shown) [Example 420, formic acid salt] | human activated kallikrein enzyme (Homo sapiens, UniProt P03952) | < 1 nM
COc1ccccc1Cn1cc(C(=O)NCc2c(C)cc3c(N)nccc3c2C)cn1 | human activated kallikrein enzyme (Homo sapiens, UniProt P03952) | 100 to 1000 nM
Cc1ccc2nc(C(C)n3cc(C(=O)NCc4c(C)cc5c(N)nccc5c4C)cn3)cn2c1 (stereo not shown) [Example 13] | human activated kallikrein enzyme (Homo sapiens, UniProt P03952) | < 1 nM

====

The entries below are paired with their reported pEC50.
Target: human activated kallikrein enzyme (Homo sapiens, UniProt P03952)
Test: Inhibition of human activated plasma kallikrein, fluorogenic PFR-AMC substrate, 500 pM enzyme format
Format: biochemical
Conditions: 500 pM activated kallikrein; 300 μM PFR-AMC; 30 min preincubation; 10 min room temperature; pH 7.5; read-out: Primary Dose Response Assay: Average EC50
Experimental: Compounds were evaluated for inhibition of the human activated kallikrein enzyme in two formats of an assay employing a fluorogenic peptide substrate. […] After initiation with substrate, reactions were incubated for 10 min at room temperature and fluorescence emission at 460 nm from 380 nm excitation measured with a microplate reader. […]
pEC50: −log10 of the molar value. Counter-ions that a name gives are not always drawn.
measured-quantity: pEC50

compound | assayed-system | measured-quantity | result
Cc1ccc2cc(COc3cc(NCc4c(C)cc5c(N)nccc5c4C)ncn3)ccc2n1 | human activated kallikrein enzyme (Homo sapiens, UniProt P03952) | pEC50 | 8.00 to 9.00
C/C=C\c1ccc2nc(Cn3ccc(C(=O)NCc4c(C)cc5c(N)nccc5c4C)n3)cn2c1 | human activated kallikrein enzyme (Homo sapiens, UniProt P03952) | pEC50 | > 9.00
Cc1cc2c(N)nccc2c(C)c1CNC(=O)c1cnn(Cc2ccc(Cc3ncccn3)cc2)c1 | human activated kallikrein enzyme (Homo sapiens, UniProt P03952) | pEC50 | 8.00 to 9.00
Cc1cc2c(N)nccc2c(C)c1CNc1cc(OCc2ccccc2)ncn1 | human activated kallikrein enzyme (Homo sapiens, UniProt P03952) | pEC50 | < 6.00
Cc1cc2c(N)nccc2c(C)c1CNc1cc(NCc2ccc(Cc3cnccn3)cc2)ncn1 | human activated kallikrein enzyme (Homo sapiens, UniProt P03952) | pEC50 | 8.00 to 9.00
Cc1cc2c(N)nccc2c(C)c1CNc1nccc2cn(Cc3nc4ccc(C5CC5)cn4n3)nc12 | human activated kallikrein enzyme (Homo sapiens, UniProt P03952) | pEC50 | 8.00 to 9.00
Cc1cc2c(N)nccc2c(C)c1CNC(=O)c1cnn(Cc2ccc3cnn(C)c3c2)c1 | human activated kallikrein enzyme (Homo sapiens, UniProt P03952) | pEC50 | 8.00 to 9.00
Cc1ccc2nc(Cn3cc(C(=O)NCc4c(C)cc5c(NC(=O)OCc6ccccc6)nccc5c4C)cn3)cn2c1 | human activated kallikrein enzyme (Homo sapiens, UniProt P03952) | pEC50 | 7.00 to 8.00
CCOC(=O)[C@H]1[C@@H]2CN(C(=O)Cc3ccc(Cn4cc(C(=O)NCc5c(C)cc6c(N)nccc6c5C)cn4)cc3)C[C@@H]21 | human activated kallikrein enzyme (Homo sapiens, UniProt P03952) | pEC50 | 7.00 to 8.00
Cc1ccc2nc(Cn3cc(C(=O)NCc4c(C)cc5c(NC(=O)OC(C)C)nccc5c4C)cn3)cn2c1 | human activated kallikrein enzyme (Homo sapiens, UniProt P03952) | pEC50 | 7.00 to 8.00
Cc1cc2c(N)nccc2c(C)c1CNC(=O)c1cnn(Cc2ccccn2)c1 | human activated kallikrein enzyme (Homo sapiens, UniProt P03952) | pEC50 | 6.00 to 7.00
Cc1cc2c(N)nccc2c(C)c1CNc1nsc(NCc2cn3cc(C4CC4)ccc3n2)n1 | human activated kallikrein enzyme (Homo sapiens, UniProt P03952) | pEC50 | 8.00 to 9.00
Cc1cc2c(N)nccc2c(C)c1CNC(=O)c1cnn(Cc2nc3ccc(C4CC4)cn3n2)c1 | human activated kallikrein enzyme (Homo sapiens, UniProt P03952) | pEC50 | > 9.00
Cc1cc2c(N)nccc2c(C)c1CNc1cc(N(C)Cc2cnc3ccccc3c2)ncn1 | human activated kallikrein enzyme (Homo sapiens, UniProt P03952) | pEC50 | 7.00 to 8.00
Cc1cc(Cn2cc(C(=O)NCc3c(C)cc4c(N)nccc4c3C)cn2)ccc1C1CC1 | human activated kallikrein enzyme (Homo sapiens, UniProt P03952) | pEC50 | 8.00 to 9.00
Cc1cc2c(N)nccc2c(C)c1CNc1cc(NCc2ccc(Cn3cccn3)cc2F)cnn1 | human activated kallikrein enzyme (Homo sapiens, UniProt P03952) | pEC50 | > 9.00
Cc1cc2c(N)nccc2c(C)c1CNC(=O)c1cnn(Cc2cc3cccc(C)c3nc2Cl)c1 | human activated kallikrein enzyme (Homo sapiens, UniProt P03952) | pEC50 | 8.00 to 9.00
Cc1cc2c(N)nccc2c(C)c1CNC(=O)c1cnn(Cc2cncnc2)c1 | human activated kallikrein enzyme (Homo sapiens, UniProt P03952) | pEC50 | 6.00 to 7.00
Cc1cc2c(N)nccc2c(C)c1CNc1cc(C(F)(F)c2cn3cc(C4CC4)ccc3n2)ncn1 | human activated kallikrein enzyme (Homo sapiens, UniProt P03952) | pEC50 | 7.00 to 8.00
Cc1cc2c(N)nccc2c(C)c1CNc1cc(OCc2ccc3nc(C)c(C)nc3c2)cnn1 [Example 418, formic acid salt] | human activated kallikrein enzyme (Homo sapiens, UniProt P03952) | pEC50 | > 9.00
Cc1cc2c(N)nccc2c(C)c1CNC(=O)c1cn(Cc2cn3cc(C4CC4)ccc3n2)nc1C(F)F | human activated kallikrein enzyme (Homo sapiens, UniProt P03952) | pEC50 | > 9.00
Cc1cc2c(N)nccc2c(C)c1CNC(=O)c1cnn(Cc2ccc(CC(=O)N3C[C@@H]4[C@H](CO)[C@@H]4C3)cc2)c1 | human activated kallikrein enzyme (Homo sapiens, UniProt P03952) | pEC50 | > 9.00
Cc1cc2c(N)nccc2c(C)c1CNC(=O)c1cnn(Cc2ccc(CC(=O)N3C[C@@H]4[C@H](C)[C@@H]4C3)cc2)c1 | human activated kallikrein enzyme (Homo sapiens, UniProt P03952) | pEC50 | > 9.00
Cc1cc2c(N)nccc2c(C)c1CNC(=O)c1cnn(Cc2ccc3ccc(Cl)cc3n2)c1 | human activated kallikrein enzyme (Homo sapiens, UniProt P03952) | pEC50 | 8.00 to 9.00
CCc1cnc2ccc(Cn3cc(C(=O)NCc4c(C)cc5c(N)nccc5c4C)cn3)cc2c1 | human activated kallikrein enzyme (Homo sapiens, UniProt P03952) | pEC50 | > 9.00
Cc1cc2c(N)nccc2c(C)c1CNc1cc(NCc2cnc3ccccc3c2)ncn1 [Example 317, formic acid salt] | human activated kallikrein enzyme (Homo sapiens, UniProt P03952) | pEC50 | 8.00 to 9.00
Cc1cc2c(N)nccc2c(C)c1CNc1cc(OCc2ccc(-n3ccccc3=O)cc2)cnn1 | human activated kallikrein enzyme (Homo sapiens, UniProt P03952) | pEC50 | 8.00 to 9.00
COc1ccc2nc(Cl)c(Cn3cc(C(=O)NCc4c(C)cc5c(N)nccc5c4C)cn3)cc2c1 | human activated kallikrein enzyme (Homo sapiens, UniProt P03952) | pEC50 | 8.00 to 9.00
Cc1cc2c(N)nccc2c(C)c1CNc1cc(OCc2cn3cc(C4CC4)cc(C#N)c3n2)ncn1 | human activated kallikrein enzyme (Homo sapiens, UniProt P03952) | pEC50 | > 9.00
Cc1cc2c(N)nccc2c(C)c1CNc1cc(NCc2ccc(OCC(=O)N3CCC3)cc2)ncn1 [Example 347, formic acid salt] | human activated kallikrein enzyme (Homo sapiens, UniProt P03952) | pEC50 | > 9.00
Cc1cc2c(N)nccc2c(C)c1CNC(=O)c1cnn(Cc2cc3ccccc3o2)c1 | human activated kallikrein enzyme (Homo sapiens, UniProt P03952) | pEC50 | 7.00 to 8.00

====

Target: human activated kallikrein enzyme (Homo sapiens, UniProt P03952)
Assay: Inhibition of human activated plasma kallikrein, fluorogenic PFR-AMC substrate, 500 pM enzyme format
Type: biochemical
Details: 500 pM activated kallikrein; 300 μM PFR-AMC; 30 min preincubation; 10 min room temperature; pH 7.5; read-out: Primary Dose Response Assay: Average EC50
Protocol: Compounds were evaluated for inhibition of the human activated kallikrein enzyme in two formats of an assay employing a fluorogenic peptide substrate. […] After initiation with substrate, reactions were incubated for 10 min at room temperature and fluorescence emission at 460 nm from 380 nm excitation measured with a microplate reader. […]
pEC50: −log10 of the molar value. Counter-ions that a name gives are not always drawn.
// reported pEC50 for each item listed

compound | assayed-system | pEC50
Cc1cc2c(N)nccc2c(C)c1CNC(=O)c1cnn(Cc2ccc(CC(=O)N3CC4CC4C3)cc2)c1 (stereo not shown) | human activated kallikrein enzyme (Homo sapiens, UniProt P03952) | > 9.00
Cc1cc2c(N)nccc2c(C)c1CNC(=O)c1cnn(C(C)c2ccc3ncc(Cl)cc3c2)c1 (stereo not shown) | human activated kallikrein enzyme (Homo sapiens, UniProt P03952) | > 9.00
Cc1cc2c(N)nccc2c(C)c1CNc1cc(OCc2ccc(-n3ccccc3=O)cc2)ncn1 | human activated kallikrein enzyme (Homo sapiens, UniProt P03952) | 7.00 to 8.00
Cc1cc2c(N)nccc2c(C)c1CNc1cc(NCc2ccc(OC(C)(C)C(=O)N(C)C)cc2)ncn1 [Example 354, formic acid salt] | human activated kallikrein enzyme (Homo sapiens, UniProt P03952) | 7.00 to 8.00
Cc1cc2c(N)nccc2c(C)c1CNc1cc(NCc2ccc(OCC(=O)N3CCCCC3)cc2)ncn1 | human activated kallikrein enzyme (Homo sapiens, UniProt P03952) | 8.00 to 9.00
Cc1cc2c(N)nccc2c(C)c1CNc1cc(OCc2cc(C#N)c3ncc(Cl)cc3c2)ncn1 | human activated kallikrein enzyme (Homo sapiens, UniProt P03952) | 8.00 to 9.00
Cc1cc2c(N)nccc2c(C)c1CNC(=O)c1cnn(Cc2ccc3ncc(O)cc3c2)c1 | human activated kallikrein enzyme (Homo sapiens, UniProt P03952) | 8.00 to 9.00
Cc1cc2c(N)nccc2c(C)c1CNC(=O)c1cnn(Cc2ccc(Oc3cc(Cl)cn(C)c3=O)cc2)c1 | human activated kallikrein enzyme (Homo sapiens, UniProt P03952) | > 9.00
Cc1cc2c(N)nccc2c(C)c1CNC(=O)c1cnn([C@@H](C)c2ccccc2)c1 | human activated kallikrein enzyme (Homo sapiens, UniProt P03952) | 6.00 to 7.00
Cc1cc2c(N)nccc2c(C)c1CNS(=O)(=O)c1cn(Cc2cn3cc(C4CC4)ccc3n2)nn1 | human activated kallikrein enzyme (Homo sapiens, UniProt P03952) | 7.00 to 8.00
Cc1cc2c(N)nccc2c(C)c1CNC(=O)c1cnn(Cc2ccc(CC(=O)N3CCC3)cc2)c1 | human activated kallikrein enzyme (Homo sapiens, UniProt P03952) | > 9.00
Cc1cc2c(N)nccc2c(C)c1CNc1cc(OCc2cn3cc(C4CC4)ccc3n2)ccn1 | human activated kallikrein enzyme (Homo sapiens, UniProt P03952) | > 9.00
Cc1cc2c(N)nccc2c(C)c1CNc1cc(OCc2ccc(Cn3ccccc3=O)cc2)cnn1 | human activated kallikrein enzyme (Homo sapiens, UniProt P03952) | > 9.00
Cc1cc2c(N)nccc2c(C)c1CNc1cc(NCc2ccc3ccccc3c2)ncn1 | human activated kallikrein enzyme (Homo sapiens, UniProt P03952) | 7.00 to 8.00
Cc1cc2c(N)nccc2c(C)c1CNC(=O)c1cnn(Cc2cc3cc(F)ccc3o2)c1 | human activated kallikrein enzyme (Homo sapiens, UniProt P03952) | 7.00 to 8.00
Cc1cc2c(N)nccc2c(C)c1CNc1cc(OCc2cc3cc(C4CC4)cc(CCC(=O)O)n3n2)ncn1 | human activated kallikrein enzyme (Homo sapiens, UniProt P03952) | > 9.00

Hello, the source for this data is patent US20260374754A1, in case you need it.
